# Assay Protocol: Kinetic solubility in aqueous buffer pH 7.4 by total chemiluminescent nitrogen determination (Analiza)
# Setup Conditions: aqueous buffer, pH 7.4, aqueous buffer, kinetic from dmso stock
Entries are sorted into classes by solubility kinetic as follows: lower band (below 5 µM), central band (5 µM to below 100 µM), upper band (100 µM or more)

Query string: Band of CN1C(=N)N[C@](C)(c2cc(NC(=O)c3ccc(F)cn3)ccc2F)CS1(=O)=O [Verubecestat (MK-8931)] ?
Result string: upper band

Query string: Param item: CC1(COc2ccc3c(c2)ncn3-c2ccc3cccc(N4CCC(N)CC4)c3n2)COC1 [Crenolanib]
Result string: upper band

Query string: Param item: CC(=O)N1CCN(c2ccc(OCC3COC(Cn4ccnc4)(c4ccc(Cl)cc4Cl)O3)cc2)CC1 (stereo not shown) [Ketoconazole]
Result string: upper band

Query string: Param item: Cc1ccccc1NC(=O)CN1C(=O)N/C(=C/c2ccccc2OCc2ccc(C(=O)O)cc2)C1=O [CHEMBL1416302]
Result string: central band

All figures here come from paper PMC9019904.
